- testedTarget: T1, POT1a;TPP1 (mouse;mouse?, UniProt Q91WC1;Q5EE38 1-640;1-416, |)
- T1 sequence 1: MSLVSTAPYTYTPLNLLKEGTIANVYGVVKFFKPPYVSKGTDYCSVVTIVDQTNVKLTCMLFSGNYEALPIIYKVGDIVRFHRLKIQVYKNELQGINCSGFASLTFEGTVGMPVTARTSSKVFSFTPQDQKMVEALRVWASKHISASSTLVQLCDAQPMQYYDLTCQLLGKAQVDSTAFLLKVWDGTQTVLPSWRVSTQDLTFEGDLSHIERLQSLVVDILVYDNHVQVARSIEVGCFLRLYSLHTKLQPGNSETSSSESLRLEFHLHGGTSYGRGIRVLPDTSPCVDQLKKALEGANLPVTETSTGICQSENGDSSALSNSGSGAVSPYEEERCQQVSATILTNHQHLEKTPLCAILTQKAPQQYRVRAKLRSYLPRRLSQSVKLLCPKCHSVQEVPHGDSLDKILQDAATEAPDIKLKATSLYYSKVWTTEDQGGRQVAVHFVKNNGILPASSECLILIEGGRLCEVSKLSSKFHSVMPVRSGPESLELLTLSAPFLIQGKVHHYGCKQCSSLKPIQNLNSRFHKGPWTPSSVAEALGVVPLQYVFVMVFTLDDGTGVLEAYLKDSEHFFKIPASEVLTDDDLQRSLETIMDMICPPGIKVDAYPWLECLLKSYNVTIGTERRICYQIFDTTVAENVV
- T1 sequence 2: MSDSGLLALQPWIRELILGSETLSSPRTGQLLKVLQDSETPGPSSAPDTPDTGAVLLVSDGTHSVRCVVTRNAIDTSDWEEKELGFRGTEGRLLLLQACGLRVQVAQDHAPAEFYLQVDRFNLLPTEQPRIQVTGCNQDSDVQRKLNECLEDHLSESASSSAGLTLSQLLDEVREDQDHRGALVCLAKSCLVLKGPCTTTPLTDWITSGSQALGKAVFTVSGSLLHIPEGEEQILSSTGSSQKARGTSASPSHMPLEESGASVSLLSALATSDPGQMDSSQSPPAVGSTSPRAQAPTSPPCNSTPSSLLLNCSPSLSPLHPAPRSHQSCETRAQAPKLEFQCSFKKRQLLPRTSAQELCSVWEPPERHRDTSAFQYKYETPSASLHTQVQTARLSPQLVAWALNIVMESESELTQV
- protocolNotes: EMSA
readoutLabel: Kd

Query :: Give reported Kd value for TTAGGGTTAGGGTTAGGGTTAGGGTTAGGGTTAG (ssDNA) [Telo34]
Result :: ~0.5 nM
